Provenance of the data: patent US20240254119A1

Reported Caco-2: Efflux Ratio values for the following compounds.
- Tested on: Caco-2 cells
- assayMethodText: Caco-2 permeability assay
- Type: in vitro ADME
- assayConditions: Caco-2
- Protocol: Exemplary compounds were tested for cell permeability in Caco-2, MDCKII-MDR1 and MDCKII-BCRP cell lines with efflux transporter engagement inferred from the efflux ratios determined. Procedures and results are described below. […] […] And permeation of lucifer yellow through the monolayer was measured to evaluate the cellular integrity. […]
Please give only the number in your answer, with no unit.

Here's what some known entries look like.
compound | targetOrSystem | result
CCCNc1ccn2c(C(=O)Nc3cc(-c4noc([C@H]5C[C@@H]5F)n4)ccc3C)cnc2c1 | Caco-2 cells | 0.92
Cc1nc(-c2ccc(Cl)c(NC(=O)c3cnc4ccccn34)c2)no1 | Caco-2 cells | 0.49
Cc1ccc(-c2noc([C@H](C)O)n2)cc1NC(=O)c1cnc2ccccn12 | Caco-2 cells | 2.93
Cc1ccc(-c2noc(C3CCS(=O)(=O)C3)n2)cc1NC(=O)c1cnc2ccccn12 (racemic) | Caco-2 cells | 25.4

Prompt line: Could you tell me which Caco-2: Efflux Ratio is on file for `Cc1ccc(-c2noc(CC(C)(C)O)n2)cc1NC(=O)c1cnc2ccccn12` ?
Response line: 2.62

Prompt line: Dear colleague, I am looking for the recorded Caco-2: Efflux Ratio of the following compound: `Cc1ccc(-c2noc([C@H]3C[C@@H]3F)n2)cc1NC(=O)c1cnc2ccc(F)cn12`
Response line: 0.56

Prompt line: I would be grateful if you could share the reported Caco-2: Efflux Ratio for `Cc1ccc(-c2noc([C@H]3CC(F)(F)CN3)n2)cc1NC(=O)c1cnc2ccccn12` .
Response line: 1.19

Prompt line: Please give the measured Caco-2: Efflux Ratio for this compound: `Cc1ccc(-c2noc([C@H]3C[C@@H]3F)n2)cc1NC(=O)c1cnc2cc(OC(F)(F)F)ccn12`
Response line: 0.66

Prompt line: May I ask what Caco-2: Efflux Ratio has been recorded for `CNC(=O)N1CC(c2nc(-c3ccc(C)c(NC(=O)c4cnc5ccccn45)c3)no2)C1` ?
Response line: 152

----------
- targetOrSystem: CSF-1R (Homo sapiens, UniProt P07333)
- Construct: purchased Invitrogen PV3249 (lot 662393N)
- Sequence (P07333 20-972): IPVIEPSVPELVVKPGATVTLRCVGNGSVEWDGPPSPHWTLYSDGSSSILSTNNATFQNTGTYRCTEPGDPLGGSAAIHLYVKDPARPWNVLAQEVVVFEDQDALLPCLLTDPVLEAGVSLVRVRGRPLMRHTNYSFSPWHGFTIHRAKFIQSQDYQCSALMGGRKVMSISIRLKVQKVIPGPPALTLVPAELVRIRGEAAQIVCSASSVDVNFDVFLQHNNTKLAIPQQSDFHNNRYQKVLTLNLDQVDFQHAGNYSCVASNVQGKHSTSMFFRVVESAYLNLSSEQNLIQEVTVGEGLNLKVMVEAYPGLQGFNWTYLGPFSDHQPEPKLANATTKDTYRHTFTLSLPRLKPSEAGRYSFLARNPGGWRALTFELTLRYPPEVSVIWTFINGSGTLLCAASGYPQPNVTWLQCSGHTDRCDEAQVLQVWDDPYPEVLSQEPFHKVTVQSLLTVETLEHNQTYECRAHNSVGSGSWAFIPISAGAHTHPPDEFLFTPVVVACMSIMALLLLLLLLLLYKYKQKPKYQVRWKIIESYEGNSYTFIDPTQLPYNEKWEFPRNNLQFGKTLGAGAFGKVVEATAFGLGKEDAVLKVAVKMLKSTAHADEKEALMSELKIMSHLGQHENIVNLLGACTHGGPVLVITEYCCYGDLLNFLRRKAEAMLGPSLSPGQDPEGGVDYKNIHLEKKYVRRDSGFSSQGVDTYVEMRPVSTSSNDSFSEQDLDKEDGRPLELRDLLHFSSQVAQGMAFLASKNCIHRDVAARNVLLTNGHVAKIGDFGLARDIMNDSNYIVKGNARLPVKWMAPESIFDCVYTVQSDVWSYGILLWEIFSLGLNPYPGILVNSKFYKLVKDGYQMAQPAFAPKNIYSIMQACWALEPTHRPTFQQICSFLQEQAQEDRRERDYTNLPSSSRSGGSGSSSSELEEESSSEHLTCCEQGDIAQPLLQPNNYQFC
- assayMethodText: Caliper biochemical assay, CSF-1R
- assayConditions: Table 6
- Procedure: Enzyme, substrate, and cofactors (ATP and Mn^2+) are combined in a well of a microtiter plate and incubated for 3 hours at 25° C. At the end of the incubation, the reaction is quenched by the addition of an EDTA-containing buffer. Substrate and product are separated electrophoretically using the microfluidic-based LabChip 3000 Drug Discovery System from Caliper Life Sciences* and quantitated by fluorescence intensity. […] • 1. […] Read plate LabChip 3000 Drug Discovery System […]
readoutLabel: IC50

compound | targetOrSystem | IC50
COC1(C(F)F)CC(c2nc(-c3ccc(C)c(NC(=O)c4cnc5ccccn45)c3)no2)C1 (stereo not shown) | CSF-1R (Homo sapiens, UniProt P07333) | ≤ 50 nM
Cc1ccc(-c2noc(C3CCN3)n2)cc1NC(=O)c1cnc2ccccn12 (racemic) | CSF-1R (Homo sapiens, UniProt P07333) | 50 to 500 nM
Cc1ccc(-c2noc(C34CCC(CC3)CC4)n2)cc1NC(=O)c1cnc2ccccn12 | CSF-1R (Homo sapiens, UniProt P07333) | ≤ 50 nM
O=C(Nc1cc(-c2noc([C@H]3C[C@@H]3F)n2)ccc1Cl)c1cnc2ccccn12 | CSF-1R (Homo sapiens, UniProt P07333) | ≤ 50 nM
Cc1ccc(-c2noc(CC(=O)O)n2)cc1NC(=O)c1cnc2ccccn12 | CSF-1R (Homo sapiens, UniProt P07333) | 500 to 5000 nM

Prompt line: So what does the record say about IC50 for COC(=O)N1CC(c2nc(-c3ccc(C)c(NC(=O)c4cnc5cc(O[C@@H](C)CO)ccn45)c3)no2)C1 (single isomer, unassigned) ?
Response line: ≤ 50 nM

Prompt line: Could you tell me which IC50 is on file for `Cc1nc(-c2ccc(C)c(NC(=O)c3cnc4cc(C(F)F)ccn34)c2)no1` ?
Response line: 500 to 5000 nM

Prompt line: I am curious: what IC50 value has been reported for `COC(=O)CS(=O)(=O)N1CC[C@H]1c1nc(-c2ccc(C)c(NC(=O)c3cnc4ccccn34)c2)no1` ?
Response line: 50 to 500 nM

Prompt line: Need IC50 of `Cc1nc(-c2ccc(C)c(NC(=O)c3cnc4ccc(NCCO)cn34)c2)no1` , thanks.
Response line: ≤ 50 nM

Prompt line: IC50 lookup needed for `COC(=O)Cc1nc(-c2ccc(C)c(NC(=O)c3cnc4ccccn34)c2)no1` , thanks.
Response line: 50 to 500 nM

Prompt line: Dear colleague, I am looking for the recorded IC50 of the following compound: `Cc1nc(-c2ccc(C)c(NC(=O)c3cnc4ccc(N)cn34)c2)no1`
Response line: 50 to 500 nM

Prompt line: Item under review: CCOC1CC(c2nc(-c3ccc(C)c(NC(=O)c4cnc5ccccn45)c3)no2)C1 (stereo not shown) . Reported IC50?
Response line: 50 to 500 nM

Prompt line: Item under review: `COC(=O)N1CC(c2nc(-c3ccc(C)c(NC(=O)c4cnc5cc(OC[C@H](C)O)ccn45)c3)no2)C1` . Reported IC50?
Response line: ≤ 50 nM

Prompt line: I'd like to know its IC50. The compound in question is Cc1ccc(-c2noc(C3CCC(F)C3)n2)cc1NC(=O)c1cnc2ccccn12 (racemic) [Compound I-318]
Response line: ≤ 50 nM

Prompt line: Entry `Cc1ccc(-c2noc([C@H]3C[C@@H]3F)n2)cc1NC(=O)c1cnc2ccc(C#N)cn12` has what IC50?
Response line: ≤ 50 nM

Prompt line: Give its IC50 value. Item: Cc1ccc(-c2noc(CC3CC3(F)F)n2)cc1NC(=O)c1cnc2ccccn12 (stereo not shown)
Response line: ≤ 50 nM
